target-or-system: GST
test-method-notes: SPOT array
settings: median of control spots 978
experimental-endpoint: SPOT intensity

Some binders with recorded SPOT intensity:
>  <binder>
GAGERPRLVPRPINV

>  <SPOT intensity>
0

$$$$
>  <binder>
RFKRHRLEFPFNESE

>  <SPOT intensity>
0

$$$$
>  <binder>
VDFTLPPPPPPPGLD

>  <SPOT intensity>
0

$$$$
>  <binder>
NFKRLLPRDPSEKSS

>  <SPOT intensity>
0

$$$$
>  <binder>
AVPPPPPPPPLPESL

>  <SPOT intensity>
1

$$$$
>  <binder>
LKVTPGRRAPTISKI

>  <SPOT intensity>
0

$$$$
>  <binder>
TTAPALPSLPPPPLL

>  <SPOT intensity>
0

$$$$
>  <binder>
FVLRYYILIPHEQWD

>  <SPOT intensity>
0

$$$$

1: VGFRLALKFPSRITG
2: NNFYRPLLRSVLVLL
Input pair: 1 , 2 . Output: entry with lower SPOT intensity. Your choice should be expressed through its label.
1
(1: 0, 2: 1)
